- SUBJECT OF TEST: SARS-CoV-2 nsp14 MTase (Severe acute respiratory syndrome coronavirus 2)
- METHOD: biochemical
- Format: biochemical
- CONDITION CONTEXT: compound 100µM; replicate experiment 2
Measured nsp14 Inhibition % (100µM) Exp 2 of individual entries
EXPERIMENTAL READOUT: nsp14 Inhibition % (100µM) Exp 2 (%)

MOLECULE: OCC(O)C(O)C(O)C(O)c1nc2ccccc2s1 (stereo not drawn) [NSC34443]
EXPERIMENTAL READOUT: nsp14 Inhibition % (100µM) Exp 2
TEST VALUE: 81
--
MOLECULE: O=c1ccn(C2OC(C(O)CO)C(O)C2O)c(=O)[nH]1 (stereo not drawn) [NSC613624]
EXPERIMENTAL READOUT: nsp14 Inhibition % (100µM) Exp 2
TEST VALUE: −1
--
MOLECULE: NC(CCC(=O)NC(CSCc1ccc(F)cc1)C(=O)NCC(=O)O)C(=O)O (stereo not drawn) [NSC131119]
EXPERIMENTAL READOUT: nsp14 Inhibition % (100µM) Exp 2
TEST VALUE: 0
--
MOLECULE: O=C(O)CCC(=O)NCC1CCCC(CNC(=O)CCC(=O)O)C1 (stereo not drawn) [NSC317609]
EXPERIMENTAL READOUT: nsp14 Inhibition % (100µM) Exp 2
TEST VALUE: 1
--
MOLECULE: Cn1c(=O)c2c(ncn2CCCNCC(O)c2ccc(O)c(CO)c2)n(C)c1=O (stereo not drawn) [NSC293892]
EXPERIMENTAL READOUT: nsp14 Inhibition % (100µM) Exp 2
TEST VALUE: 3
--
MOLECULE: O=S(=O)(O)c1ccc(N=Nc2c(O)ccc3n[nH]nc23)cc1 [NSC400937]
EXPERIMENTAL READOUT: nsp14 Inhibition % (100µM) Exp 2
TEST VALUE: 66
--
MOLECULE: Nc1ncnc2c1ncn2C1OC(CO)C(NC(=O)C(N)Cc2ccccc2)C1O (stereo not drawn) [NSC114010]
EXPERIMENTAL READOUT: nsp14 Inhibition % (100µM) Exp 2
TEST VALUE: −3
--
MOLECULE: Nc1ncnc2c1ncn2C1OC(C(=O)NCC(=O)O)C(O)C1O (stereo not drawn) [NSC163444]
EXPERIMENTAL READOUT: nsp14 Inhibition % (100µM) Exp 2
TEST VALUE: 5
--
MOLECULE: Nc1ncnc2c1ncn2[C@H]1C[C@H](O)[C@@H](COP(=O)(O)O)O1 [NSC77680]
EXPERIMENTAL READOUT: nsp14 Inhibition % (100µM) Exp 2
TEST VALUE: 7

====

- SUBJECT OF TEST: SARS-CoV-2 nsp14 MTase (Severe acute respiratory syndrome coronavirus 2)
- METHOD: biochemical
- Assay type: biochemical
- CONDITION CONTEXT: compound 100µM; replicate experiment 2
EXPERIMENTAL READOUT: nsp14 Inhibition % (100µM) Exp 2 (%)

MOLECULE: O=C(O)c1ccc(C(=O)c2ccc(C(=O)c3ccc(C(=O)O)cc3)cc2)cc1 [NSC2269]
EXPERIMENTAL READOUT: nsp14 Inhibition % (100µM) Exp 2
TEST VALUE: 60
--
MOLECULE: NS(=O)(=O)c1ccc(NC2OCC(O)C(O)C2O)cc1 (stereo not drawn) [NSC158437]
EXPERIMENTAL READOUT: nsp14 Inhibition % (100µM) Exp 2
TEST VALUE: 1
--
MOLECULE: NC(CSCCSCCSCC(N)C(=O)O)C(=O)O (stereo not drawn) [NSC400718]
EXPERIMENTAL READOUT: nsp14 Inhibition % (100µM) Exp 2
TEST VALUE: 88
--
MOLECULE: O=C1NC(=O)C(C(=O)C(=O)Nc2cccc(C(F)(F)F)c2)C(=O)N1 [NSC646375]
EXPERIMENTAL READOUT: nsp14 Inhibition % (100µM) Exp 2
TEST VALUE: 20
--
MOLECULE: O=C1C=C(O)C(=C/C=C/C=C/c2c(O)cc(O)cc2O)C(O)=C1 [NSC77131]
EXPERIMENTAL READOUT: nsp14 Inhibition % (100µM) Exp 2
TEST VALUE: 99
--
MOLECULE: O=C(O)c1nc(N=Nc2ccc(S(=O)(=O)O)cc2)[nH]c1C(=O)O [NSC4624]
EXPERIMENTAL READOUT: nsp14 Inhibition % (100µM) Exp 2
TEST VALUE: 47
--
MOLECULE: Nc1nc2nn(-c3ccc(C(=O)NC(CCC(=O)O)C(=O)O)cc3)nc2c(=O)[nH]1 (stereo not drawn) [NSC44037]
EXPERIMENTAL READOUT: nsp14 Inhibition % (100µM) Exp 2
TEST VALUE: 9
--
MOLECULE: O=S(=O)(O)c1cc(Cl)cc(N=Nc2ccc(O)cc2O)c1O [NSC102798]
EXPERIMENTAL READOUT: nsp14 Inhibition % (100µM) Exp 2
TEST VALUE: 74
--
MOLECULE: O=C(O)c1ccc(Nc2nc3ccccc3nc2C(=O)O)cc1 [NSC670682]
EXPERIMENTAL READOUT: nsp14 Inhibition % (100µM) Exp 2
TEST VALUE: 54
